Tested on: SR leukemia
Experiment: NCI-60 one-dose screen, 48 h (100 = growth as untreated, 0 = no growth, -100 = all killed)
Details: 10 µM unless noted
Compounds without any hit were thinned out: in the full panel of roughly 83,000, 20% have a hit.
Label satisfied when growth < 30%; otherwise not satisfied.

Does CC1(C=O)NC(=O)NC1=O (centres undefined) have growth strictly under 30%?
not satisfied

For this compound, is growth lower than 30%? COc1cc(C2CC(c3ccc(Cl)cc3)=NN2c2ccc(Cl)cc2)cc(OC)c1OC (centres undefined)
not satisfied

Does the reported growth of N#Cc1cc2[nH]c3ccc(OC(F)(F)F)cc3c2oc1=O stay below 30%?
satisfied

Say whether its growth is strictly beneath 30%. Entry: COc1cc2nccc(Oc3ccc(NC(=O)Nc4cc(C)on4)c(Cl)c3)c2cc1OC
satisfied

Strictly below 30%: is that where growth of CO[C@@H](C)Cn1c(=O)n(C)c2cnc3ccc(-c4cncc(C(C)(C)O)c4)cc3c21 sits?
satisfied

Please check: growth for Cc1cc2c(F)c(Oc3ncnn4cc(OC[C@@H](C)OC(=O)[C@H](C)N)c(C)c34)ccc2[nH]1 , strictly under 30% or not?
satisfied

Does CNC(=O)c1c(C)oc2cc(Oc3ncnc4cc(OC)c(OC)cc34)ccc12 have growth strictly under 30%?
not satisfied

I'd appreciate it if you could check whether Clc1ccc(/C=C/c2cc(N3CCOCC3)c3cc(Cl)c(Cl)cc3n2)cc1 has growth smaller than 30%.
not satisfied

For C=CC(=O)N1CCC(Oc2cc3c(Nc4ccc(Cl)c(Cl)c4F)ncnc3cc2OC)CC1 , is the recorded growth below the cut-off of 30%?
satisfied

Regarding CCCCn1c(C)nc2cc(Nc3nc(N4CCCCC4)nc4nc[nH]c34)ccc21 , kindly confirm whether its growth is beneath 30%.
not satisfied

Confirm or reject: growth of CC(C)CC(=O)Nc1n[nH]c2c1CN(C(=O)C1CCN(C)CC1)C2(C)C lies strictly below 30%
satisfied

Hi there! Is growth for CCCCCCCC(=O)SCC/C=C/[C@@H]1CC(=O)NCc2nc(co2)C2=N[C@@](C)(CS2)C(=O)N[C@@H](C(C)C)C(=O)O1 below 30%, do you know?
satisfied

Please indicate whether the reported growth of COc1ccc(-c2cc3c(oc2=O)-c2ccccc2OC3OC(C)=O)cc1 (centres undefined) is strictly below 30%.
not satisfied

Would you kindly verify if growth of Cc1cccc(Cl)c1NC(=O)c1cnc(Nc2cc(N3CCOCC3)cc(N3CCOCC3)c2)s1 is strictly less than 30%?
satisfied

Threshold test, growth < 30%: O=C(N/N=C/c1ccc(Cl)cc1)c1cc(-c2cc3ccccc3o2)nn1-c1ccccc1
not satisfied

Strictly below 30%: is that where growth of Cc1nn(-c2ccccc2)c2c1N=c1s/c(=C\c3cn(-c4ccccc4)nc3-c3ccc(Cl)cc3)c(=O)n1C(C)N2 (centres undefined) sits?
not satisfied

I'd appreciate it if you could check whether Cc1csc(-c2nnc(Nc3ccc(Oc4ncccc4-c4ccnc(N)n4)cc3)c3ccccc23)c1 has growth smaller than 30%.
satisfied

Dear colleague, could you confirm whether growth of Cc1cccc(Cl)c1NC(=O)c1cnc(Nc2cc(N3CCOCC3)cc(S(C)(=O)=O)c2)s1 falls below 30%? Thanks.
not satisfied

Please determine if COc1cccc(Nc2ncnn3ccc(CN4CC[C@@H](N)[C@H](O)C4)c23)c1 is below 30% in terms of growth.
satisfied

----------
Tested on: A498 renal
Test: NCI-60 one-dose screen, 48 h
Settings: 10 µM unless noted
The panel holds about 83,000 compounds, 20% with a hit somewhere; the sample as a whole holds those more often. Calls of active or inactive are those of the source. How the source made its calls: active means growth percent below 10; inactive means the rest.
The reply should be one of these categories: Y = active, N = inactive

Dear all, I need the recorded test outcome for C/C=C/C=N/NC(=S)Nc1ccccc1 , thank you.
N

What is the recorded call for this compound in the test? C=CC(=O)Nc1cccc(Nc2nc(Nc3ccc(N4CCN(C(C)=O)CC4)cc3OC)ncc2C(F)(F)F)c1
Y

Outcome? COC(=O)N[C@@H](C)CNc1nccc(-c2cn(C(C)C)nc2-c2cc(Cl)cc(NS(C)(=O)=O)c2F)n1
N

Any idea what this test logged for CC(=O)c1cnc2ccc(-c3cc(Cl)c(O)c(Cl)c3)nc2c1NC1CCC(CN(C)C)CC1 (centres undefined) ?
Y

Could you kindly confirm the outcome this assay logged for O=C1/C(=C\c2cccc(OCCCCCOc3ccc(Cl)cc3)c2)N=C2SCCCN12 ?
N

Call for entry O=CC(OC(=O)c1ccccc1)C(OC(=O)c1ccccc1)C(COC(c1ccccc1)(c1ccccc1)c1ccccc1)OC(=O)c1ccccc1 (centres undefined) :
N

Per the assay record, what outcome was assigned to O=C(NC1CCNCC1)c1[nH]ncc1NC(=O)c1c(Cl)cccc1Cl ?
Y

Look up the recorded call for O=C(Cc1ccc(/C=C/C(=O)c2ncc[nH]2)cc1)Nc1ccc(S(F)(F)(F)(F)F)cc1 in this test.
N

Kindly provide the recorded test outcome for the following compound: CCCCCCCCCCCC[n+]1ccccc1
N

----------
System: M14 melanoma
Test: NCI-60 one-dose screen, 48 h
Conditions: 10 µM unless noted
This is part of a sample that, as a whole, favours compounds with a hit. Of some 83,000 tested, about 20% had one in any assay. Activity calls are given as the source filed them. How the source made its calls: active means growth percent below 10; inactive means the rest.
Give one outcome, nothing more. List: active, inactive

Outcome? Cc1oc2c(C(=O)N/N=C\c3ccc(O)cc3O)c[nH]c2c1C
active

Entry COc1ccc2c(c1)cn1c3ccc(O)cc3nc(N)c21 : call = ?
inactive

Test call, this compound: CC(C)CC(=O)Nc1n[nH]c2c1CN(C(=O)C1CCN(C)CC1)C2(C)C
inactive

Outcome logged for Cc1cc2c(-c3nc4ccccn4c3NC34CC5CC(CC(C5)C3)C4)c(O)c(O)cc2c(O)c1-c1c(C)cc2c(-c3nc4ccccn4c3NC34CC5CC(CC(C5)C3)C4)c(O)c(O)cc2c1O in this assay:
active

Assay outcome for COc1ccc2c(CCCCC(c3ccccc3)c3ccccc3)c3[n+](cc2c1OC)CCc1cc2c(cc1-3)OCO2 : what was it?
active

What classification did O=C1CC(c2cccc(F)c2)c2c(n[nH]c2-c2ccc(Cl)cc2)N1 (centres undefined) end up with in this test?
inactive

Write down the call the test reported for this compound. Item: COc1ccc(-c2cc3c(oc2=O)-c2ccccc2OC3OC(C)=O)cc1 (centres undefined)
inactive

For Cc1cc(N(CCNc2ccnc3cc(Cl)ccc23)Cc2ccc3c(c2)OCO3)nc(N2CCCC2)n1 , which call appears in the assay record?
active

Record lookup: outcome of this test for CCN1CCN(c2nc(C)cc(N(CCCNc3ccnc4cc(Cl)ccc34)Cc3ccc4c(c3)OCO4)n2)CC1 ?
active

----------
System: NCI-H522 lung
Test: NCI-60 one-dose screen, 48 h
Conditions: 10 µM unless noted
The panel holds about 83,000 compounds, 20% with a hit somewhere; the sample as a whole holds those more often. Active and inactive are the calls of the source. How the source made its calls: active means growth percent below 10; inactive means the rest.
Please reply with one of these outcomes: active, inactive

Please indicate how the test categorized COc1cc(Nc2ncc(F)c(Nc3ccc4c(n3)N(COP(=O)(O)O)C(=O)C(C)(C)O4)n2)cc(OC)c1OC .
active

For C=CC(=O)N1CCC[C@H](n2c(=O)n(-c3ccc(Oc4ccccc4)cc3)c3c(N)ncnc32)C1 , which call appears in the assay record?
inactive

Hi, do you know how CCCCCCCC(=O)SCC/C=C/[C@@H]1CC(=O)NCc2cccc(n2)C2=N[C@@](C)(CS2)C(=O)N[C@@H](C(C)C)C(=O)N1 came out in this test?
active

I'd appreciate the recorded outcome for O=C(Nc1ccc(C2=NCCCN2)cc1)c1ccc(C(=O)Nc2ccc(C3=NCCCN3)cc2)nc1 from this test.
inactive

For CC(C)[C@@H]1CC[C@@H]2[C@@H]1[C@H](OC(=O)/C=C/c1ccccc1)[C@]1(C(C)C)C[C@@H](OC(=O)CO)[C@@]2(C)O1 , what call appears in the results of this test?
inactive

Recorded test call requested for Cc1cc(Nc2ncc(Cl)c(Nc3ccccc3S(=O)(=O)C(C)C)n2)c(OC(C)C)cc1C1CCNCC1
active

Outcome? CN1[C@@H]2CC[C@H]1/C(=C\c1ccccc1)C1=C2[C@@H](c2ccccc2)C(C#N)=C(N)O1
inactive

Outcome logged for NS(=O)(=O)c1ccc(CCN2C(=O)/C(=C\c3ccc(Cl)cc3)C=C2c2ccc3ccccc3c2)cc1 in this assay:
inactive

----------
Tested on: A498 renal
Assay: NCI-60 one-dose screen, 48 h
Details: 10 µM unless noted
Experimental: Growth inhibition of the A498 human tumor cell line is measured as a screen for anti-cancer activity. Cells are grown in 96 well plates and exposed to the test compound for 48 hours. Compounds are tested at a single concentration, which is 10^-5 M for most compounds. The reported endpoint is percent growth (GI% or GIPRCNT), where numbers from 0 - 100% represent growth inhibition, and numbers from -100% - 0 represent cell death. For example, a value of 40 represents 60% growth inhibition. […]
About 83,000 compounds went through this panel and 20% of them were active in at least one assay; those are over-represented in the sample as a whole. The source made the active and inactive calls. Rule for the calls: active = growth percent below 10; inactive = the rest.
Valid outcomes are listed here; reply with one: label 1 = active, label 0 = inactive

Hi, sorry to bother you, what did the test record for N#Cc1c(-c2ccc(Cl)cc2)csc1NC(=O)Nc1cccc(C(F)(F)F)c1 ?
label 0

Returns: the outcome recorded for COc1cc(C(=O)NNC(=O)c2ccc(NC(=O)CCl)cc2)cc(OC)c1OC in this assay.
label 0

Record lookup: outcome of this test for COc1cc(-c2nc(C(=O)Nc3ccc(C)cc3)nn2-c2ccc(F)c(F)c2)cc(OC)c1OC ?
label 0

Dear colleague, could you share the recorded outcome for Cn1nccc1Nc1nccc(-c2ccn([C@H](CO)c3ccc(Cl)c(F)c3)c(=O)c2)n1 when you have a moment?
label 0

Hey, what did the test say about CC(=Nc1ccccc1)C1=C(O)C(Cc2ccc(O)cc2)NC1=O (stereo not given) ?
label 1
